Entry source: ChEMBL document CHEMBL4513216

assay: Toxicity liver stage against HepG2, at 10uM; format: cell-based; design: test concentration 10 uM, cell line HepG2-A16-CD81EGFP; conditions: human, HepG2-A16-CD81EGFP cells; read-out: INHIBITION
Reported cytotoxicity at 10 µM values are given for each entry in this list.
endpoint: cytotoxicity at 10 µM (%)

compound: CCC(C)(NCC(N)=O)c1nccs1 (stereo not drawn)
endpoint: cytotoxicity at 10 µM
result.number: 7.3
//
compound: CCc1ccc(C(=O)O)cc1S(=O)(=O)N(C)c1cccc(C#N)c1
endpoint: cytotoxicity at 10 µM
result.number: -2.08
//
compound: O=C1CCC2(CCC(NCc3cccnc3)CC2)N1Cc1ccccc1 (stereo not drawn)
endpoint: cytotoxicity at 10 µM
result.number: -2.04
//
compound: Cn1ccnc1C(=O)N1CCC2(CCN2Cc2ccc(F)cc2)C1 (stereo not drawn)
endpoint: cytotoxicity at 10 µM
result.number: -97
//
compound: NC(=O)CC1CCN(C(=O)NCCc2ccc(Cl)s2)CC1
endpoint: cytotoxicity at 10 µM
result.number: -8.03
//
compound: CO[C@@H]1CCC[C@@H](NC(=O)CCCn2cncn2)[C@H]1O
endpoint: cytotoxicity at 10 µM
result.number: 7.87
//
compound: CNc1ccc(C2CN(c3cc(C)ncn3)CCO2)nc1 (stereo not drawn)
endpoint: cytotoxicity at 10 µM
result.number: 7.14
//
compound: Cc1[nH]ncc1CCCNC(=O)Nc1ccc2c(c1)OC1(CCCC1)O2
endpoint: cytotoxicity at 10 µM
result.number: 18.6
//
compound: CN(C)S(=O)(=O)N1CC[C@]2(O)CCN(Cc3cccc(C#N)c3)C[C@@H]2C1
endpoint: cytotoxicity at 10 µM
result.number: -4.63
//
compound: O=C(c1cnn[nH]1)N1CCCC1c1nc2cc(F)ccc2[nH]1 (stereo not drawn)
endpoint: cytotoxicity at 10 µM
result.number: 2.68
//
compound: Cc1ccc(CNC2(Cc3cc(-c4ccccn4)on3)COC2)o1
endpoint: cytotoxicity at 10 µM
result.number: 8.91
//
compound: Cc1ccccc1C(=O)N1CC[C@H](O)[C@@H](N2CCOCC2)CC1
endpoint: cytotoxicity at 10 µM
result.number: 5.32
//
compound: Cc1cccc(CN2CCO[C@H]3[C@@H](OCc4ccncc4)CC[C@@H]32)n1
endpoint: cytotoxicity at 10 µM
result.number: -85.4
//
compound: CCc1nc(CNc2cc(C)nc(-c3cccnc3)n2)cs1
endpoint: cytotoxicity at 10 µM
result.number: -63.6
//
compound: Cn1cc(CNc2ccc(CCO)cc2)c(-c2ccncc2)n1
endpoint: cytotoxicity at 10 µM
result.number: 5.82
//
compound: CCc1nnsc1C(=O)NCc1c(C)nn(CCOC)c1C
endpoint: cytotoxicity at 10 µM
result.number: -8.8
//
compound: COc1ccccc1C1Cn2ccnc2CN1Cc1c[nH]nc1C (stereo not drawn)
endpoint: cytotoxicity at 10 µM
result.number: -3.85
//
compound: CC(=O)Nc1ccc(CNCC(O)c2ccc(C)cc2)cc1 (stereo not drawn)
endpoint: cytotoxicity at 10 µM
result.number: -0.684
//
compound: O=C(Cc1ccc2c(c1)CCCC2)N[C@@H]1CC[C@@H](n2ccnc2)[C@@H]1O
endpoint: cytotoxicity at 10 µM
result.number: -5.69
//
compound: N#Cc1cnc(NC2CCN(C(=O)C3CCCCC3)CC2)c(Cl)c1
endpoint: cytotoxicity at 10 µM
result.number: -3.75
//
compound: CCn1c(C)cc(C(=O)N2C[C@@H](C(=O)O)[C@H](c3ccccc3C)C2)c1C
endpoint: cytotoxicity at 10 µM
result.number: -7.71
//
compound: Cc1ccc(CNC(=O)N2CCCCC2CCNS(C)(=O)=O)cc1 (stereo not drawn)
endpoint: cytotoxicity at 10 µM
result.number: -0.524
//
compound: O=C(COC1CCCC1)NCCc1nc(-c2ccccn2)cs1
endpoint: cytotoxicity at 10 µM
result.number: 6.94

---

Reported cytotoxicity at 10 µM values are given for each entry in this list.
test: Toxicity liver stage against HepG2, at 10uM; type: cell-based; set-up: test concentration 10 uM, cell line HepG2-A16-CD81EGFP; conditions: human, HepG2-A16-CD81EGFP cells; read-out: INHIBITION

compound: c1cncc(CO[C@H]2CN(Cc3ccco3)[C@@H]3COC[C@H]23)c1
cytotoxicity at 10 µM (%): -101
--
compound: Cn1ncc(NC(=O)c2noc3c2CCCC3)c1C(=O)N1CCCCC1
cytotoxicity at 10 µM (%): -13.4
--
compound: O=C(c1ccccc1)N1CCOC2(CCN(Cc3cccs3)CC2)C1
cytotoxicity at 10 µM (%): 0.64
--
compound: CCOC(=O)CN(C)C1CCc2ccccc21 (stereo unspecified)
cytotoxicity at 10 µM (%): 0.367
--
compound: CC(C)(C)C(=O)N1C[C@H](c2ccsc2)[C@H]2CN(C3CCCC3)CC[C@H]21
cytotoxicity at 10 µM (%): 2.33
--
compound: COc1ccc(CNCC2CNc3cc(C)nn3C2)cn1 (stereo unspecified)
cytotoxicity at 10 µM (%): -16.5
--
compound: Cc1cccc(N2CCN(CCC(=O)NCc3cccnc3)CC2)c1
cytotoxicity at 10 µM (%): -9.2
--
compound: O=C(CCn1ccc2cc(Br)ccc21)/N=c1\[nH]nc(C2CCCO2)s1 (stereo unspecified)
cytotoxicity at 10 µM (%): -2.31
--
compound: CC(=O)Nc1ccc(Cl)c(C(=O)N(C)C(C)c2nccs2)c1 (stereo unspecified)
cytotoxicity at 10 µM (%): -42.8
--
compound: CCC1c2ccsc2CCN1C(=O)NCc1cc(C)on1 (stereo unspecified)
cytotoxicity at 10 µM (%): -10.2
--
compound: COc1cccc(CSCC(=O)NCc2cccnc2)c1
cytotoxicity at 10 µM (%): -46.3

---

test: Toxicity liver stage against HepG2, at 10uM; format: cell-based; design: test concentration 10 uM, cell line HepG2-A16-CD81EGFP; details: human, HepG2-A16-CD81EGFP cells; read-out: INHIBITION
Reported cytotoxicity at 10 µM values are given for each entry in this list.

compound: CC(C)(O)CNC(=O)c1sccc1Br
cytotoxicity at 10 µM / %: -5.58
--
compound: CCCS(=O)(=O)NCc1cccnc1OCc1ccccc1
cytotoxicity at 10 µM / %: 13
--
compound: CS(=O)(=O)NCC1OCCc2cn(CC3CC3)nc21 (stereo not given)
cytotoxicity at 10 µM / %: 8.19
--
compound: CCCn1cc(-c2cc(C(=O)N(C)C)c3ccc(OC)cc3n2)cn1
cytotoxicity at 10 µM / %: 6.22
--
compound: COCCOC1CCN(C(=O)NCc2cc(C)oc2C)CC1
cytotoxicity at 10 µM / %: -4.23
--
compound: O=C(N1CCCCC1)N1CCCC1c1nnc2n1CCNC2 (stereo not given)
cytotoxicity at 10 µM / %: 13.6
--
compound: Cc1nc(C)n(CC2CCCCN2CCOc2ccc(C#N)cc2)n1 (stereo not given)
cytotoxicity at 10 µM / %: -6.79
--
compound: COC(=O)CCN1CCCC1c1ccccc1Cl (stereo not given)
cytotoxicity at 10 µM / %: 19.6
--
compound: NC(=O)c1c[nH]nc1NCc1ccc2c(c1)OCO2
cytotoxicity at 10 µM / %: -2.9
--
compound: Cc1ncoc1C(=O)N1CCOC(CC2CCCCC2)C1 (stereo not given)
cytotoxicity at 10 µM / %: -1.33
--
compound: CN(CCCc1ccc(C(F)(F)F)cc1)Cc1nccn1C
cytotoxicity at 10 µM / %: 9.05
--
compound: Cc1cc(N2CCN(C(=O)[C@@H]3C[C@H]4C=C[C@@H]3C4)CC2)cc(C)n1
cytotoxicity at 10 µM / %: -7.62
--
compound: Cc1cc(CC(=O)N2CCc3cc(Br)sc3C2)n[nH]1
cytotoxicity at 10 µM / %: 10.2
--
compound: Cn1cnnc1C1CCCN(C(=O)c2ccccc2Cl)C1 (stereo not given)
cytotoxicity at 10 µM / %: 3.59
--
compound: Cc1cc(C)n(CNc2nonc2C(N)=O)n1
cytotoxicity at 10 µM / %: -13
--
compound: Fc1cccc(N2CCCC3(CN(Cc4ccco4)CCO3)C2)c1 (stereo not given)
cytotoxicity at 10 µM / %: -63.5
--
compound: Cc1cc(CN[C@@H](Cc2ccccc2)C(N)=O)c(C)s1
cytotoxicity at 10 µM / %: -0.527
--
compound: O=S(=O)(c1ccccc1F)N1CCCC(c2nccs2)C1 (stereo not given)
cytotoxicity at 10 µM / %: -11
--
compound: CCO[C@@H]1CC[C@H]2[C@H]1OCCN2Cc1ccoc1
cytotoxicity at 10 µM / %: -96.9
--
compound: CCN1CCN(C(C)CNC(=O)Nc2nc3ccccc3s2)CC1 (stereo not given)
cytotoxicity at 10 µM / %: -2.32
--
compound: CC(=O)c1cnc(NCC2OCCc3ccccc32)nc1C (stereo not given)
cytotoxicity at 10 µM / %: -48.9
--
compound: O=C1CC(c2ccncc2)C2(CCN(Cc3ccc(F)cc3)CC2)N1 (stereo not given)
cytotoxicity at 10 µM / %: 1.35
--
compound: CCc1ccc(-c2ncc3c(n2)N(C)CCN(CCN(C)C)C3=O)cc1
cytotoxicity at 10 µM / %: -9.52
--
compound: CCn1cnnc1CNC(=O)N(C)Cc1ccc(F)c(F)c1
cytotoxicity at 10 µM / %: -11.4
--
compound: CC(Nc1nc(-c2ccncc2)nc2c1CCNC2)c1ccccc1 (stereo not given)
cytotoxicity at 10 µM / %: -9.94
